Target: APOL1 (Homo sapiens, UniProt O14791)
Sequence (O14791 1-398 S342G/I384M): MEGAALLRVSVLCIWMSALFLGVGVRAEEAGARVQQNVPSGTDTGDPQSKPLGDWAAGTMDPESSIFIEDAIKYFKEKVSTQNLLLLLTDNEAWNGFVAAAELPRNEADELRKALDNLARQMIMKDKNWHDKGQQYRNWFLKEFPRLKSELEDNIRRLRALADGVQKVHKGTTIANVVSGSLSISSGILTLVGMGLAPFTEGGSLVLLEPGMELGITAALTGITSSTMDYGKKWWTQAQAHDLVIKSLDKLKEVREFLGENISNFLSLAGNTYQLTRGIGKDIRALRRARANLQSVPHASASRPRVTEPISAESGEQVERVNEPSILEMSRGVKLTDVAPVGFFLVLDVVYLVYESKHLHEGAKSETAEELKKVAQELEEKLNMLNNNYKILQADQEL
Assay: MultiTox-Fluor Multiplex Cytotoxicity Assay in tet-inducible APOL1 T-REx-HEK293 cells (cell rescue, ratio of dead to live cells)
Settings: tet-inducible transgenic APOL1 T-REx-HEK293 cell lines, 50 ng/mL tet, 24 hours; read-out: IP50 (i.e., IC50 for cell proliferation)
pIC50: −log10 of the molar value.
Listed next: entries and their corresponding pIC50.

The following molecules have reported results that may help.
[
  {
    "molecule": "CCc1cc2c(s1)CCOC21CCN(Cc2cnc(NCc3cc[nH]c(=O)c3)nc2)CC1",
    "pIC50": "6.30 to 7.00"
  },
  {
    "molecule": "C[C@H]1C[C@@]2(CCN1Cc1cnn(CC(O)COCC(F)(F)F)c1)OCCc1c2sc(C(F)(F)F)c1CO (stereo partly shown)",
    "pIC50": "> 7.00"
  },
  {
    "molecule": "CCc1cc2c(s1)CCOC21CCN(Cc2cnc(-c3cccnc3)s2)CC1",
    "pIC50": "6.30 to 7.00"
  }
]

get_value(item= CCc1cc2c(s1)CCO[C@@]21CCN(CC2CN(C(=O)COC(C)(C)C)C2)[C@@H](C)C1 , readout=pIC50) returns > 7.00

###

This section presents compounds with their documented IC50 values.
Biological target: APOL1 (Homo sapiens)
Sequence (O14791 1-398 S342G/I384M): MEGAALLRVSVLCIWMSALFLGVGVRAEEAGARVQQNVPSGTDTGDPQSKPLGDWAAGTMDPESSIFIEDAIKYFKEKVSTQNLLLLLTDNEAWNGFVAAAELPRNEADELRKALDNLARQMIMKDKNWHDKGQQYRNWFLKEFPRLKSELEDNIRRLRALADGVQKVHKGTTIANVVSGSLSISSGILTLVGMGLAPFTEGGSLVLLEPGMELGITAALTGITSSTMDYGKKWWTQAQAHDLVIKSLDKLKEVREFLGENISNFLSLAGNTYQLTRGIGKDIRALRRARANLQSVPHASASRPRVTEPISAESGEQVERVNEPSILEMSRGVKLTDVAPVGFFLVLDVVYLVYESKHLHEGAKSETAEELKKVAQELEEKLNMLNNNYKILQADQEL
Experiment: MultiTox-Fluor Multiplex Cytotoxicity Assay in tet-inducible APOL1 T-REx-HEK293 cells (cell rescue, ratio of dead to live cells)
Details: tet-inducible transgenic APOL1 T-REx-HEK293 cell lines, 50 ng/mL tet, 24 hours; read-out: IP50 (i.e., IC50 for cell proliferation)

Recorded results for 5 compounds are shown here.
[
  {
    "compound": "CCc1cc2c(s1)CCO[C@@]21CCN(Cc2cnc(NC(C)(CC)CO)nc2)[C@@H](C)C1 (some centres unmarked)",
    "IC50": "< 100 nM"
  },
  {
    "compound": "CCc1cc2c(s1)CCOC21CCN(Cc2cn(CCc3csc(N)n3)nn2)CC1",
    "IC50": "500 to 1000 nM"
  },
  {
    "compound": "CCc1cc2c(s1)CCO[C@@]21CCN(CC2CN(C(=O)CS(=O)(=O)CC)C2)[C@@H](C)C1",
    "IC50": "< 100 nM"
  },
  {
    "compound": "CCc1cc2c(s1)CCO[C@@]21CCN([C@H]2C[C@H](NC(=O)OC(C)(C)C)C2)[C@@H](C)C1",
    "IC50": "500 to 1000 nM"
  },
  {
    "compound": "CCc1cc2c(s1)CCOC21CCN(Cc2cn(Cc3cc(COC)[nH]n3)nn2)CC1",
    "IC50": "500 to 1000 nM"
  }
]

Query CCc1cc2c(s1)CCOC21CCN(Cc2cn(C3CCN(C(C)=O)CC3)nn2)CC1 yields IC50 of 500 to 1000 nM

// sample CCc1cc2c(s1)CCOC21CCN(Cc2cn(CC(O)C3CCCO3)nn2)C(C)C1 (centres unmarked) , its IC50 was < 100 nM

For CCc1cc2c(s1)CCO[C@@]21CCN(C[C@H]2C[C@@H](NC(=O)c3nnc(C)o3)C2)[C@@H](C)C1 the compound record lists IC50 as 100 to 500 nM

This collection of values is drawn from patent US20250171459A1.
